Please respond with reported remaining activity at 10 µM for every item in the list.
Molecular target: PIK3R3(SH2dom.C-term.) (Homo sapiens, UniProt Q92569)
Construct: SH2dom.C-term. denotes SH2 domain closest to C-terminus of protein; made in house; host or cells: HEK293 (transient transfection, unpurified extract)
Assay: biochemical
Format: binding
Conditions: primary screen, 10 μM; read-out: percent of DMSO vehicle control
One number for each entry, in %.

The following compounds have reported results that may help.
Compound: CC(C)(C)[C@H](NC(=O)/C=C/c1ccc(OP(=O)(O)O)cc1)C(=O)N1CCC[C@H]1C(=O)N(c1ccccc1)c1ccc(I)cc1 [STAT6-IN-3]
Reported measurement: 26.9
--
Compound: C/C(=C\C(=O)N[C@H](C(=O)N1CCC[C@H]1C(=O)N(c1ccccc1)c1ccc(I)cc1)C(C)(C)C)c1ccc(OP(=O)(O)O)cc1 [STAT6-IN-1]
Reported measurement: 1
--
Compound: O=C(COc1ccc2cc(C(=O)Nc3ccccc3)ccc2c1)NCc1ccc(OP(=O)(O)O)c(OP(=O)(O)O)c1 [Stafib-1]
Reported measurement: 86.5

Supply recorded remaining activity at 10 µM for O=C(CCl)Nc1cccc(CNC(=O)[C@H](Cc2ccc(OP(=O)(O)O)cc2)NC(=O)Cc2ccc(F)cc2)c1 [MN551] here.
27.3

====

Biological target: FRK (Homo sapiens, UniProt P42685)
Construct: the DNA-tagged SH2 domain concentrations used in this study were <0.1 nM; made in house; host or cells: HEK293 (transient transfection; unpurified extract)
Sequence (P42685 116-208 limits assumed): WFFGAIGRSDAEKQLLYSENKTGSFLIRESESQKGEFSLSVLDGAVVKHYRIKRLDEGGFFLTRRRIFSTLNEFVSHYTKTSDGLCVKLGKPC
Assay: biochemical
Assay type: binding
Conditions: read-out: percent of DMSO vehicle control
Non-standard residues stand in square brackets, D forms with d. Residues, ends and D or L forms follow the SMILES beside them. *: point of attachment. pY = N[C@@H](Cc1ccc(OP(=O)(O)O)cc1)C(=O)O; Caffeoyl = O=C(/C=C/c1ccc(O)c(O)c1)*
Measurement type: percent of DMSO vehicle control at 10 µM (%)
Give bare numbers, in %.

In the examples that follow, each entry is paired with its recorded percent of DMSO vehicle control at 10 µM.
Compound: NC(=O)CC[C@H](NC(=O)[C@@H]1CC[C@@H]2CCN(C(=O)CCCCCC#Cc3cccc4c3CN(C3CCC(=O)NC3=O)C4=O)C[C@H](NC(=O)c3cc4cc(C(F)(F)P(=O)(O)O)ccc4[nH]3)C(=O)N21)C(=O)NC(c1ccccc1)c1ccccc1 (stereo partly shown)
percent of DMSO vehicle control at 10 µM, %: 155
--
Compound: CC(=O)N1CC[C@H]2CC[C@@H](C(=O)N[C@@H](CCC(N)=O)C(=O)NC(c3ccccc3)c3ccccc3)N2C(=O)[C@@H](NC(=O)c2cc3cc(C(F)(F)P(=O)(O)O)ccc3[nH]2)C1
percent of DMSO vehicle control at 10 µM, %: 151
--
Compound: CC[C@H](C)[C@H](NC(=O)[C@H](CCC(=O)O)NC(=O)[C@H](CCC(=O)O)NC(=O)[C@H](Cc1ccc(OP(=O)(O)O)cc1)NC(=O)/C=C/c1ccc(O)c(O)c1)C(=O)N[C@@H](CCC(=O)O)C(=O)O [Caffeic acid-pYEEIE] (Caffeoyl-[pY]EEIE-OH)
percent of DMSO vehicle control at 10 µM, %: 0.1

Supply reported percent of DMSO vehicle control at 10 µM belonging to this compound: CC(=O)N[C@@H](Cc1ccc(CP(=O)(O)O)cc1)C(=O)NC1(C(=O)N[C@@H](CC(N)=O)C(=O)NCCCc2c(O)ccc3ccccc23)CCCCC1
89.4

====

Target: VAV2 (Homo sapiens)
Construct: made in house; host or cells: HEK293 (transient transfection), unpurified extract
Sequence (P52735 whole entry): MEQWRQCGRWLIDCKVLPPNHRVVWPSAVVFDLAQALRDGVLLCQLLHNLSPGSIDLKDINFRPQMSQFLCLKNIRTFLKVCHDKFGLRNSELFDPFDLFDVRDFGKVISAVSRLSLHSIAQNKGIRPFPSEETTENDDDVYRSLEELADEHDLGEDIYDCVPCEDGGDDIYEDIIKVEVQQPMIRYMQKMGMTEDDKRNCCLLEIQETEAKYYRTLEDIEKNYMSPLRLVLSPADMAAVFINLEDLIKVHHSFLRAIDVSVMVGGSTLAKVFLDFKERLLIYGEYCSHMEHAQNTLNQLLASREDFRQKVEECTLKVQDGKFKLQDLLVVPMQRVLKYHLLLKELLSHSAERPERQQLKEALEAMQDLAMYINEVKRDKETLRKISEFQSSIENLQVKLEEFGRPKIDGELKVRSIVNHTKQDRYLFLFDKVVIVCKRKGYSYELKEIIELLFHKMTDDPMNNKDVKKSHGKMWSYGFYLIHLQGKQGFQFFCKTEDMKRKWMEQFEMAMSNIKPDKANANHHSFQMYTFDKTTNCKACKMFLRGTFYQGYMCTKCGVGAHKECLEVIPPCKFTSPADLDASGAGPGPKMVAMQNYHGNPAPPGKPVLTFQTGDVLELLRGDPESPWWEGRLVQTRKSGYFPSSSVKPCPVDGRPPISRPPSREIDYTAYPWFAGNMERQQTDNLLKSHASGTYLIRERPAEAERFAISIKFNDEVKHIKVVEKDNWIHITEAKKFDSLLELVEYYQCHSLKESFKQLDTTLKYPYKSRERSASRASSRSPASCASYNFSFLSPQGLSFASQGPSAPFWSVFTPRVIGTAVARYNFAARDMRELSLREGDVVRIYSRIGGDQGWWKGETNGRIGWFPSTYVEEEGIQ
Experiment: biochemical
Assay type: binding
Details: read-out: percent of DMSO vehicle control
Non-standard residues stand in square brackets, D forms with d. Residues, ends and D or L forms follow the SMILES beside them. *: point of attachment. pY = N[C@@H](Cc1ccc(OP(=O)(O)O)cc1)C(=O)O; Caffeoyl = O=C(/C=C/c1ccc(O)c(O)c1)*
Could you please report measured remaining activity at 10 µM for the items listed next?
One number for each entry, in %.

Known remaining activity at 10 µM results, listed for orientation:
Molecule: CC[C@H](C)[C@H](NC(=O)[C@H](CCC(=O)O)NC(=O)[C@H](CCC(=O)O)NC(=O)[C@H](Cc1ccc(OP(=O)(O)O)cc1)NC(=O)/C=C/c1ccc(O)c(O)c1)C(=O)N[C@@H](CCC(=O)O)C(=O)O [Caffeic acid-pYEEIE] (Caffeoyl-[pY]EEIE-OH)
Reported measurement: 0.5
--
Molecule: CC(=O)N1CC[C@H]2CC[C@@H](C(=O)N[C@@H](CCC(N)=O)C(=O)NC(c3ccccc3)c3ccccc3)N2C(=O)[C@@H](NC(=O)c2cc3cc(C(F)(F)P(=O)(O)O)ccc3[nH]2)C1 [SI-109]
Reported measurement: 119
--
Molecule: CC(=O)N[C@@H](Cc1ccc(CP(=O)(O)O)cc1)C(=O)NC1(C(=O)N[C@@H](CC(N)=O)C(=O)NCCCc2c(O)ccc3ccccc23)CCCCC1 [CGP78850]
Reported measurement: 50.4

Now for a further molecule.
Input NC(=O)CC[C@H](NC(=O)[C@@H]1CC[C@@H]2CCN(C(=O)CCCCCC#Cc3cccc4c3CN(C3CCC(=O)NC3=O)C4=O)C[C@H](NC(=O)c3cc4cc(C(F)(F)P(=O)(O)O)ccc4[nH]3)C(=O)N21)C(=O)NC(c1ccccc1)c1ccccc1 (stereo partly shown) [SD-36] , output reported remaining activity at 10 µM.
117

====

Assign remaining activity at 10 µM to each entry below.
Target: SOCS1 (Homo sapiens)
Construct: made in house; host or cells: HEK293 (transient transfection), unpurified extract
Sequence (O15524 1-211): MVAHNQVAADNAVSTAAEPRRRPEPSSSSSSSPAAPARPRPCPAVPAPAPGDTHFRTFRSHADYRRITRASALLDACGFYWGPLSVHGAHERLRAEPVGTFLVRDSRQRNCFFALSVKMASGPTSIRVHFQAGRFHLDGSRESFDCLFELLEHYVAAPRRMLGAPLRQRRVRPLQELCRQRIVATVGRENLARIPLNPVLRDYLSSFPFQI
Test: biochemical
Type: binding
Conditions: primary screen, 10 μM; read-out: percent of DMSO vehicle control
Numbers only, in %.

Before answering, review these 3 worked examples.
Cpd smiles: O=C(COc1ccc2cc(C(=O)Nc3ccccc3)ccc2c1)NCc1ccc(OP(=O)(O)O)c(OP(=O)(O)O)c1
Test target: SOCS1 (Homo sapiens)
remaining activity at 10 µM / %: 156

Cpd smiles: C/C(=C\C(=O)N[C@H](C(=O)N1CCC[C@H]1C(=O)N(c1ccccc1)c1ccc(I)cc1)C(C)(C)C)c1ccc(OP(=O)(O)O)cc1
Test target: SOCS1 (Homo sapiens)
remaining activity at 10 µM / %: 98.5

Cpd smiles: CC(C)(C)[C@H](NC(=O)/C=C/c1ccc(OP(=O)(O)O)cc1)C(=O)N1CCC[C@H]1C(=O)N(c1ccccc1)c1ccc(I)cc1
Test target: SOCS1 (Homo sapiens)
remaining activity at 10 µM / %: 95.9

Please examine the following record next.
Note remaining activity at 10 µM for the molecule shown: O=C(CCl)Nc1cccc(CNC(=O)[C@H](Cc2ccc(OP(=O)(O)O)cc2)NC(=O)Cc2ccc(F)cc2)c1
38.1

====

Biological target: SOCS3 (Homo sapiens)
Construct: made in house; host or cells: HEK293 (transient transfection), unpurified extract
Sequence (O14543 whole entry): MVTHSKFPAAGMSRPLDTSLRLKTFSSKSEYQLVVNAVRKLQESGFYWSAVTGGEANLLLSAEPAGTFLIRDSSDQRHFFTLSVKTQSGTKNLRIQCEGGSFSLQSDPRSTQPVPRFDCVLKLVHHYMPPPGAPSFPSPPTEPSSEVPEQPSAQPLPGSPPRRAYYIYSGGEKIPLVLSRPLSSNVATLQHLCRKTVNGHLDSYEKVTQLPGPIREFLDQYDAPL
Assay: biochemical
Type: binding
Conditions: read-out: percent of DMSO vehicle control
Non-standard residues stand in square brackets, D forms with d. Residues, ends and D or L forms follow the SMILES beside them. *: point of attachment. pY = N[C@@H](Cc1ccc(OP(=O)(O)O)cc1)C(=O)O; Caffeoyl = O=C(/C=C/c1ccc(O)c(O)c1)*
Measurement type: remaining activity at 10 µM (%)
Give bare numbers, in %.

A selection of reference data follows.
Compound: CC(=O)N1CC[C@H]2CC[C@@H](C(=O)N[C@@H](CCC(N)=O)C(=O)NC(c3ccccc3)c3ccccc3)N2C(=O)[C@@H](NC(=O)c2cc3cc(C(F)(F)P(=O)(O)O)ccc3[nH]2)C1
Measurement type: remaining activity at 10 µM
Reported measurement: 153
//
Compound: CC(=O)N[C@@H](Cc1ccc(CP(=O)(O)O)cc1)C(=O)NC1(C(=O)N[C@@H](CC(N)=O)C(=O)NCCCc2c(O)ccc3ccccc23)CCCCC1
Measurement type: remaining activity at 10 µM
Reported measurement: 116
//
Compound: NC(=O)CC[C@H](NC(=O)[C@@H]1CC[C@@H]2CCN(C(=O)CCCCCC#Cc3cccc4c3CN(C3CCC(=O)NC3=O)C4=O)C[C@H](NC(=O)c3cc4cc(C(F)(F)P(=O)(O)O)ccc4[nH]3)C(=O)N21)C(=O)NC(c1ccccc1)c1ccccc1 (stereo partly shown)
Measurement type: remaining activity at 10 µM
Reported measurement: 100

Report the value of remaining activity at 10 µM obtained on SOCS3 (Homo sapiens) for CC[C@H](C)[C@H](NC(=O)[C@H](CCC(=O)O)NC(=O)[C@H](CCC(=O)O)NC(=O)[C@H](Cc1ccc(OP(=O)(O)O)cc1)NC(=O)/C=C/c1ccc(O)c(O)c1)C(=O)N[C@@H](CCC(=O)O)C(=O)O [Caffeic acid-pYEEIE] (Caffeoyl-[pY]EEIE-OH) .
5.3
